Values from paper PMC6602958

# protocolDescription: Protein-binding capacity in silkworm hemolymph (filter unit, HPLC)
# conditionContext: silkworm hemolymph
measure: fraction unbound at 10 min, 10 µM
Reply briefly: the number, and no unit.

Specify fraction unbound at 10 min, 10 µM for OC(Cn1cncn1)(Cn1cncn1)c1ccc(F)cc1F [Fluconazole] and stop.
0.35

---

# protocolDescription: Pharmacokinetics of antibiotics in silkworm hemolymph after injection (HPLC)
# conditionContext: 180 min after injection; raw data of Fig. 1
*1 amine or outer side, *2 acyl side, *3 side chain or, on linkers, in order; H or OH if unused. Where a SMILES comes first, the peptide text is derived from it. Bridges are numbered along the chain shown (N, C = ends). [ ]: non-standard residue; d: D form. The star is where a group is joined. hTyr(3S-OH,4S-OH,3'-OSO3H) = N[C@H](C(=O)O)[C@H](O)[C@@H](O)c1ccc(O)c(OS(=O)(=O)O)c1; Orn(4R-OH,5R-OH) = O=C([C@H](C[C@@H](O)[C@@H](O)N[*:3])N[*:1])[*:2]; Pro(3S-OH,4S-Me) = C[C@H]1CN[C@H](C(=O)O)[C@H]1O; X1 = CCCCCOc1ccc(-c2cc(-c3ccc(C(=O)*)cc3)no2)cc1; Gln(3R-OH) = NC(=O)C[C@@H](O)[C@H](N)C(=O)O; Hyp = O=C(O)[C@@H]1C[C@@H](O)CN1
Reported HPLC peak area in hemolymph values for the following compounds.
Reply briefly: the number, and no unit.

>  <compound>
CN(C)[C@@H]1C(O)=C(C(N)=O)C(=O)[C@@]2(O)C(O)=C3C(=O)c4c(O)cccc4[C@@](C)(O)[C@H]3C[C@@H]12 [Tetracycline]

>  <measure>
HPLC peak area in hemolymph

>  <recordedMeasurement>
1414738

$$$$
>  <compound>
CN[C@H](CC(C)C)C(=O)N[C@H]1C(=O)N[C@@H](CC(N)=O)C(=O)N[C@H]2C(=O)N[C@H]3C(=O)N[C@H](C(=O)N[C@H](C(=O)O)c4cc(O)cc(O)c4-c4cc3ccc4O)[C@H](O)c3ccc(c(Cl)c3)Oc3cc2cc(c3O[C@@H]2O[C@H](CO)[C@@H](O)[C@H](O)[C@H]2O[C@H]2C[C@](C)(N)[C@H](O)[C@H](C)O2)Oc2ccc(cc2Cl)[C@H]1O [Vancomycin]

>  <measure>
HPLC peak area in hemolymph

>  <recordedMeasurement>
4348972

$$$$
>  <compound>
CO[C@H]1/C=C/O[C@@]2(C)Oc3c(C)c(O)c4c(O)c(c(/C=N/N5CCN(C)CC5)c(O)c4c3C2=O)NC(=O)/C(C)=C\C=C\[C@H](C)[C@H](O)[C@@H](C)[C@@H](O)[C@@H](C)[C@H](OC(C)=O)[C@@H]1C [Rifampicin]

>  <measure>
HPLC peak area in hemolymph

>  <recordedMeasurement>
11026

$$$$

Would you kindly look at the next entry?
Specify HPLC peak area in hemolymph for CCCCCOc1ccc(-c2cc(-c3ccc(C(=O)N[C@H]4C[C@@H](O)[C@@H](O)NC(=O)[C@@H]5[C@@H](O)[C@@H](C)CN5C(=O)[C@H]([C@H](O)CC(N)=O)NC(=O)[C@H]([C@H](O)[C@@H](O)c5ccc(O)c(OS(=O)(=O)O)c5)NC(=O)[C@@H]5C[C@@H](O)CN5C(=O)[C@H]([C@@H](C)O)NC4=O)cc3)no2)cc1 [Micafungin] (X1-[Orn(4R-OH,5R-OH)]T[Hyp][hTyr(3S-OH,4S-OH,3'-OSO3H)][Gln(3R-OH)][Pro(3S-OH,4S-Me)]; lactam 1-C) and stop.
936752
